biological target: CHIKV nsP1 GTP binding site; assay: FP competition assay, displacement of GTP-Bodipy by GTP and RNA cap analogs (apparent Ki / EC50); conditions: read-out: EC50 concentration of GTP; FP displacement of GTP-Bodipy; used for midpoint signal wells
observable: EC50 (µM)
# output: bare number, implied unit µM

[Q] Return reported EC50; argument: Nc1nc2c(ncn2[C@@H]2O[C@H](COP(=O)(O)OP(=O)(O)OP(=O)(O)O)[C@@H](O)[C@H]2O)c(=O)[nH]1 [GTP]
[A] 6.8

* * *

Geometric Mean Potency values for the compounds below.
tested on: CHIKV nsP1; test: HTS validation potency repeatability, EC50 of GTP analogs in two independent FP runs; conditions: first set of rows

Record excerpt, results attached:
> print(dat)
                                   compound              observable  assay.value
1  O=c1[nH]c(=O)c2ncn([C@@H]3O[C@H](COP(=O)(O)OP(=O)(O)OP(=O)(O)O)[C@@H](O)[C@H]3O)c2[nH]1 [XTP]  Geometric Mean Potency        5.251
2  O=c1ccn([C@@H]2O[C@H](COP(=O)(O)OP(=O)(O)OP(=O)(O)O)[C@@H](O)[C@H]2O)c(=O)[nH]1 [UTP]  Geometric Mean Potency       4.3046
3  Nc1ccn([C@@H]2O[C@H](COP(=O)(O)OP(=O)(O)OP(=O)(O)O)[C@@H](O)[C@H]2O)c(=O)n1 [CTP]  Geometric Mean Potency        4.146

[Q] Return reported Geometric Mean Potency; argument: Nc1ncnc2c1ncn2[C@@H]1O[C@H](COP(=O)(O)OP(=O)(O)OP(=O)(O)O)[C@@H](O)[C@H]1O [ATP]
[A] 4.371
